experimental-details: IVIVE, rat EAD with one‐compartment PPK model
settings: oral, Css = dTP
// EAD using PPK model, using nominal dTP Conc. lookup, one value per entry
metric: EAD using PPK model, using nominal dTP Conc. (mg/kg/day)

[[record]]
compound = "CCCCCC(CCC)C(=O)O (stereo not drawn)"
unit_name = "mg/kg/day"
assay_result = 27.5

[[record]]
compound = "CCCCC(C)C(=O)O (stereo not drawn)"
unit_name = "mg/kg/day"
assay_result = 924.3

[[record]]
compound = "C=CCCC(=O)O"
unit_name = "mg/kg/day"
assay_result = 947.1


* * *

Tested on: human iPS cells (HYR0103, ATCC ACS‐1007)
experimental-details: devTOX quickPredict
Assay type: cell-based
settings: o/c ratio, threshold 0.85, 48 hours
Outcome: Yes for dTP of at least 600 µM; No for anything lower.

[[record]]
compound = "CCCCCC(CCC)C(=O)O (stereo not shown)"
label_value = "No"

[[record]]
compound = "C=CCCC(=O)O"
label_value = "Yes"

[[record]]
compound = "CCCC(C)(C)C(=O)O"
label_value = "Yes"

[[record]]
compound = "CCCCC(CC)C(=O)O (stereo not shown)"
label_value = "No"

[[record]]
compound = "CCCCC(C)C(=O)O (stereo not shown)"
label_value = "Yes"

[[record]]
compound = "CCCCCC(=O)O"
label_value = "Yes"

[[record]]
compound = "CCCC(CCC)C(=O)O [VPA, Valproic acid, reference compound]"
label_value = "No"


* * *

experimental-details: IVIVE, human EAD with httk.PBTK model
settings: oral
Outcome: Condition met for EAD, Httk.PBTK model, free medium concentration of at least 400 mg/kg/day; Condition not met for anything lower.

[[record]]
compound = "CCCCC(C)C(=O)O (centres unmarked)"
label_value = "Condition not met"

[[record]]
compound = "CCCC(C)C(=O)O (centres unmarked)"
label_value = "Condition met"

[[record]]
compound = "CCCC(CCC)C(=O)O [VPA, Valproic acid, reference compound]"
label_value = "Condition not met"

[[record]]
compound = "CCCCC(CC)C(=O)O (centres unmarked)"
label_value = "Condition not met"


* * *

experimental-details: IVIVE, human EAD with GastroPlus pregnancy PBPK model
settings: human pregnancy, 12 weeks gestation
metric: EAD, GP.pregancy model, Maternal plasma Cmax, nominal dTP (mg/kg/day)

[[record]]
compound = "CCCC(C)C(=O)O (centres unmarked)"
unit_name = "mg/kg/day"
assay_result = 166.9

[[record]]
compound = "CCCCC(C)C(=O)O (centres unmarked)"
unit_name = "mg/kg/day"
assay_result = 59.12

[[record]]
compound = "CCCCC(CC)C(=O)O (centres unmarked)"
unit_name = "mg/kg/day"
assay_result = 14.1

[[record]]
compound = "CCCC(CCC)C(=O)O [VPA, Valproic acid, reference compound]"
unit_name = "mg/kg/day"
assay_result = 6.4

[[record]]
compound = "CCC(CC)C(=O)O"
unit_name = "mg/kg/day"
assay_result = 153.2


* * *

experimental-details: IVIVE, rat EAD with httk.PBTK model
settings: oral, Cmax = dTP
Lab note: compare EAD using Httk.PBTK model, using nominal dTP Conc. with 80 mg/kg/day, writing true (1) if less and false (0) if equal or more.

[[record]]
compound = "C=CCCC(=O)O"
label_value = "false (0)"

[[record]]
compound = "CCC(CC)C(=O)O"
label_value = "false (0)"

[[record]]
compound = "CCCC(C)C(=O)O (stereo not shown)"
label_value = "false (0)"

[[record]]
compound = "CCCC(CCC)C(=O)O [VPA, Valproic acid, reference compound]"
label_value = "true (1)"

[[record]]
compound = "CCCCC(CC)C(=O)O (stereo not shown)"
label_value = "true (1)"

[[record]]
compound = "CCCCCC(=O)O"
label_value = "false (0)"

[[record]]
compound = "CCCC(C)(C)C(=O)O"
label_value = "false (0)"

[[record]]
compound = "C=CCC(CCC)C(=O)O (stereo not shown)"
label_value = "true (1)"

[[record]]
compound = "CCCCC(C)C(=O)O (stereo not shown)"
label_value = "false (0)"

[[record]]
compound = "CCCCCC(CCC)C(=O)O (stereo not shown)"
label_value = "true (1)"


* * *

experimental-details: IVIVE, rat EAD with one‐compartment PPK model
settings: oral, Css = dTP
// EAD using PPK model, using nominal dTP Conc. lookup, one value per entry
metric: EAD using PPK model, using nominal dTP Conc. (mg/kg/day)

[[record]]
molecule = "CCCCC(CC)C(=O)O (stereo not shown) [EHA, 2‐Ethylhexanoic acid]"
assay_result = 95.3

[[record]]
molecule = "C=CCC(CCC)C(=O)O (stereo not shown) [4‐ene‐VPA, 2‐Propyl‐4‐pentenoic acid]"
assay_result = 119.6

[[record]]
molecule = "CCCC(CCC)C(=O)O [VPA, Valproic acid, reference compound]"
assay_result = 33.3

[[record]]
molecule = "CCCC(C)(C)C(=O)O [DMPA, 2,2‐Dimethylpentanoic acid]"
assay_result = 936.6


* * *

Tested on: human iPS cells (HYR0103, ATCC ACS‐1007)
experimental-details: devTOX quickPredict
Assay type: cell-based
settings: cell viability, threshold 0.85, 48 hours
metric: TP (µM)

[[record]]
molecule = "CCCCC(CC)C(=O)O (centres unmarked)"
study_system = "human iPS cells (HYR0103, ATCC ACS‐1007)"
metric = "TP"
unit_name = "µM"
assay_result = 390

[[record]]
molecule = "CCCC(CCC)C(=O)O [VPA, Valproic acid, reference compound]"
study_system = "human iPS cells (HYR0103, ATCC ACS‐1007)"
metric = "TP"
unit_name = "µM"
assay_result = 318

[[record]]
molecule = "C=CCCC(=O)O"
study_system = "human iPS cells (HYR0103, ATCC ACS‐1007)"
metric = "TP"
unit_name = "µM"
assay_result = 719

[[record]]
molecule = "CCCCCC(CCC)C(=O)O (centres unmarked)"
study_system = "human iPS cells (HYR0103, ATCC ACS‐1007)"
metric = "TP"
unit_name = "µM"
assay_result = 425

[[record]]
molecule = "C=CCC(CCC)C(=O)O (centres unmarked)"
study_system = "human iPS cells (HYR0103, ATCC ACS‐1007)"
metric = "TP"
unit_name = "µM"
assay_result = 636


* * *

experimental-details: IVIVE, human EAD with httk.PBTK model
settings: oral
Lab note: compare EAD, Httk.PBTK model, nominal dTP with 500 mg/kg/day, writing criterion met if less and criterion not met if equal or more.

[[record]]
compound = "CCCC(C)C(=O)O (centres unmarked)"
label_value = "criterion not met"

[[record]]
compound = "CCCCC(CC)C(=O)O (centres unmarked)"
label_value = "criterion met"

[[record]]
compound = "CCCC(CCC)C(=O)O [VPA, Valproic acid, reference compound]"
label_value = "criterion met"

[[record]]
compound = "CCC(CC)C(=O)O"
label_value = "criterion met"

[[record]]
compound = "CCCCC(C)C(=O)O (centres unmarked)"
label_value = "criterion met"


* * *

experimental-details: IVIVE, human EAD with GastroPlus pregnancy PBPK model
settings: human pregnancy, 12 weeks gestation
Outcome: Condition met for EAD, GP.pregancy model, Maternal plasma Cmax, free medium concentration of at least 100 mg/kg/day; Condition not met for anything lower.

[[record]]
molecule = "CCCC(CCC)C(=O)O [VPA, Valproic acid, reference compound]"
label_value = "Condition not met"

[[record]]
molecule = "CCCC(C)C(=O)O (centres unmarked)"
label_value = "Condition met"

[[record]]
molecule = "CCCCC(C)C(=O)O (centres unmarked)"
label_value = "Condition not met"

[[record]]
molecule = "CCCCC(CC)C(=O)O (centres unmarked)"
label_value = "Condition not met"

[[record]]
molecule = "CCC(CC)C(=O)O"
label_value = "Condition met"


* * *

experimental-details: IVIVE, rat EAD with one‐compartment PPK model
settings: oral, Css = dTP
metric: EAD using PPK model, using nominal dTP Conc.

[[record]]
molecule = "CCC(CC)C(=O)O"
assay_result = "2,708.3 mg/kg/day"

[[record]]
molecule = "CCCC(C)C(=O)O (stereo not drawn)"
assay_result = "2,957.1 mg/kg/day"

[[record]]
molecule = "CCCCCC(=O)O"
assay_result = "2,921.8 mg/kg/day"


* * *

Test system: human iPS cells (HYR0103, ATCC ACS‐1007)
experimental-details: devTOX quickPredict
Type: cell-based
settings: o/c ratio, threshold 0.85, 48 hours
metric: dTP

[[record]]
molecule = "CCCC(C)C(=O)O (stereo not drawn) [MPA, 2‐Methylpentanoic acid]"
metric = "dTP"
assay_result = "1,248 μM"

[[record]]
molecule = "CCC(CC)C(=O)O [EBA, 2‐Ethylbutyric acid]"
metric = "dTP"
assay_result = "1,071 μM"

[[record]]
molecule = "C=CCC(CCC)C(=O)O (stereo not drawn) [4‐ene‐VPA, 2‐Propyl‐4‐pentenoic acid]"
metric = "dTP"
assay_result = "611 µM"

